FYI, the data here is from patent US20240294548A1.

Listing of entries alongside the reported pEC50.
- TARGET_OR_SYSTEM: DCAF15 RBM39 ternary complex (Homo sapiens, UniProt Q14498+Q66K64, DEL276-383)
- Construct: Amino acids 150 to 331 of RBM39 were cloned into pGEX4T3; GST (from the pGEX4T3 vector, own knowledge) followed by a TEV cleavage site (N); made in house; host or cells: Sf9 baculovirus (DDB1ΔB/DCAF15); E. coli (RBM39 R1R2)
- Sequence (Q66K64 with tags, fused parts or gaps DEL276-383): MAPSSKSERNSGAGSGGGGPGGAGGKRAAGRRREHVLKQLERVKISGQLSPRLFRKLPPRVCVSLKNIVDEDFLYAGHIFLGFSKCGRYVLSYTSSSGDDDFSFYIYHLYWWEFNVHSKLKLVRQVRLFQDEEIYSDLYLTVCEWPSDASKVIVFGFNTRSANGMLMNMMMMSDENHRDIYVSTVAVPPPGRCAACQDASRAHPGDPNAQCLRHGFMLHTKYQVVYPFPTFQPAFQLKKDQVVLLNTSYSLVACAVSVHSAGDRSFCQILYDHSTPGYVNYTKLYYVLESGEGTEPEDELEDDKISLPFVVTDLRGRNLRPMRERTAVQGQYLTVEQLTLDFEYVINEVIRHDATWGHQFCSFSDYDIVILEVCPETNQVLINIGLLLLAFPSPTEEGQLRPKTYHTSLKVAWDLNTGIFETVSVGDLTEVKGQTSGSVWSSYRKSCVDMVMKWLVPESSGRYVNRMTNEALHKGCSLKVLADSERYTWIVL
- Sequence (Q14498 150-331, stated change not applied): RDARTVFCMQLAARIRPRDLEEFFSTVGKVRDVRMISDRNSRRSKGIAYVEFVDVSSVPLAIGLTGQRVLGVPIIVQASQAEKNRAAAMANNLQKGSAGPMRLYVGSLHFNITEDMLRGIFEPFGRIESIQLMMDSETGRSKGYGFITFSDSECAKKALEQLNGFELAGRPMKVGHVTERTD
- METHOD: DCAF15 RBM39 complex formation assay (FRET)
- Type: biochemical
- EXPERIMENTAL_CONDITIONS: FRET ratio, 20 nM DDB1DB/DCAF15, 50 nM RBM39 R1R2, overnight at 4° C.; read-out: DCAF15 RBM39 ternary complex EC50
pEC50: −log10 of the molar value.

| COMPOUND | pEC50 |
| --- | --- |
| COCCN1Cc2ccc3c(C#N)c[nH]c3c2NS1(=O)=O | 6.77 |
| COCCN1Cc2cc(F)c3c(Cl)c[nH]c3c2NS1(=O)=O | 8.05 |
| Cc1nnc(CN2Cc3cc(Cl)c4c(Cl)c[nH]c4c3NS2(=O)=O)o1 | 8.68 |
| O=S1(=O)Nc2c(cc(Cl)c3c(Cl)c[nH]c23)CN1Cc1ccnnc1 | 8.70 |
| O=S1(=O)Nc2c(cc(Cl)c3c(Cl)c[nH]c23)CN1Cc1ccccc1F | 8.48 |
| O=c1ccc(CN2Cc3cc(Cl)c4c(Cl)c[nH]c4c3NS2(=O)=O)c[nH]1 | 8.74 |
| COCCCN1Cc2cc(Cl)c3c(Cl)c[nH]c3c2NS1(=O)=O | 8.64 |
| O=S1(=O)Nc2c(cc(Cl)c3c(Cl)c[nH]c23)CN1CC1CCCOC1 (stereo not shown) | 8.92 |
| CC(=O)N1CCCC(CN2Cc3cc(Cl)c4c(Cl)c[nH]c4c3NS2(=O)=O)C1 (stereo not shown) | 9.40 |
| Cc1ccc(CN2Cc3cc(Cl)c4c(Cl)c[nH]c4c3NS2(=O)=O)cn1 | 9.22 |
| Nc1ccccc1CN1Cc2cc(Cl)c3c(Cl)c[nH]c3c2NS1(=O)=O | 8.89 |
| O=S1(=O)Nc2c(cc(Cl)c3c(Cl)c[nH]c23)CN1CCO | 8.41 |
| Cn1cnc(CN2Cc3cc(Cl)c4c(Cl)c[nH]c4c3NS2(=O)=O)n1 | 8.60 |
| O=S1(=O)Nc2c(cc(Cl)c3c(Cl)c[nH]c23)CN1Cc1ccncc1 | 9.15 |
| O=S1(=O)Nc2c(cc(Cl)c3c(Cl)c[nH]c23)CN1CC1CC(F)(F)C1 | 8.70 |
| COCCN1Cc2cc(Cl)c3c(Cl)c[nH]c3c2NS1(=O)=O | 8.26 |
| CC(=O)NCCN1Cc2cc(Cl)c3c(Cl)c[nH]c3c2NS1(=O)=O | 8.80 |
| Cn1c(CN2Cc3cc(Cl)c4c(Cl)c[nH]c4c3NS2(=O)=O)cccc1=O | 6.81 |
| O=S1(=O)NCc2nc(Cl)c3c(Cl)c[nH]c3c2N1 | 6.58 |
| CN(C)CCN1Cc2cc(Cl)c3c(Cl)c[nH]c3c2NS1(=O)=O | 7.97 |
| O=S1(=O)Nc2c(cc(Cl)c3c(Cl)c[nH]c23)CN1Cc1cncc(Cl)c1 | 8.59 |
| N#Cc1cccc(CN2Cc3cc(Cl)c4c(Cl)c[nH]c4c3NS2(=O)=O)c1 | 8.82 |
| CS(=O)(=O)N1CCC(CN2Cc3cc(Cl)c4c(Cl)c[nH]c4c3NS2(=O)=O)CC1 | 8.92 |
| O=S1(=O)Nc2c(cc(Cl)c3c(Cl)c[nH]c23)CN1Cc1cccc(O)c1 | 8.89 |
| Cc1ccncc1CN1Cc2cc(Cl)c3c(Cl)c[nH]c3c2NS1(=O)=O | 8.77 |
